- Tested on: Growth/differentiation factor 8 (Homo sapiens) (UniProt O14793)
- Sequence (O14793 267-375 limits assumed): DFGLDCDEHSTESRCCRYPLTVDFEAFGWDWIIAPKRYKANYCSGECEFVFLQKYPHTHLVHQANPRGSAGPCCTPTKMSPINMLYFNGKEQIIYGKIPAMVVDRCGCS
- Protocol description: Inhibition of myostatin (unknown origin) expressed in HEK293 cells at 10 uM incubated for 4 hrs by dual luciferase reporter gene assay
- Type: cell-based
The source made the active and inactive calls. No cut-off for these calls is given here.
Pick from active, inactive when you respond.

H-SRIEWIKIQIISKLRL-NH2 : active
H-SRIEWIKIQIWSKLRL-NH2 : active
H-SRIEAIKIQILSKLRL-NH2 : inactive

Now for a further substance.
# input Tell me the assay call for H-WYIEAIKIQILSKLRL-NH2 please.
# output active
